Listed compounds paired with reported GI50
test system: BaF3; assay: Antiproliferative activity against mouse BaF3 cells harboring TEL-FGFR3 assessed as cell growth inhibition by CellTiter-Glo assay; type: functional
QUANTITY MEASURED: GI50 (nM)

{"SMILES REPRESENTATION": "CCN1CCN(c2ccc(Nc3cc(-c4cccnc4Nc4c(Cl)c(OC)cc(OC)c4Cl)ncn3)cc2)CC1", "TESTED ON": "BaF3", "UOM": "nM", "ASSAY RESULT": 8}
{"SMILES REPRESENTATION": "CCN1CCN(c2cccc(Nc3ncnc(-c4cccnc4Nc4c(Cl)c(OC)cc(OC)c4Cl)n3)c2)CC1", "TESTED ON": "BaF3", "UOM": "nM", "ASSAY RESULT": 18}
{"SMILES REPRESENTATION": "COc1cc(OC)c(Cl)c(Nc2ncccc2-c2ncnc(Nc3ccc(N4CCOCC4)nc3)n2)c1Cl", "TESTED ON": "BaF3", "UOM": "nM", "ASSAY RESULT": 664}
{"SMILES REPRESENTATION": "CCN1C(=O)N(c2c(F)c(OC)cc(OC)c2F)Cc2cnc3[nH]c(CN4CCOCC4)cc3c21", "TESTED ON": "BaF3", "UOM": "nM", "ASSAY RESULT": 5}

Reference source: ChEMBL document CHEMBL5131515
